# Tested On: hCA II (Homo sapiens)
# Construct: made in house
# Protocol Details: stopped-flow CO2 hydrase assay, hCA II
# Type: biochemical
# Run Conditions: recombinant enzyme; errors ± 5–10%, 3 assays; read-out: Ki hCA II
Attribute Measured: Ki (µM)

CC1OC(Nc2cc(C(=O)O)cc([N+](=O)[O-])c2)C(O)C(O)C1O (centres unmarked) [Compound 2] = 7.24
O=C(O)c1ccc(N2CCc3ccccc32)c([N+](=O)[O-])c1 [Compound 3] = 7.3

====

# Tested On: hCA I (Homo sapiens)
# Construct: made in house
# Sequence (P00915 whole entry): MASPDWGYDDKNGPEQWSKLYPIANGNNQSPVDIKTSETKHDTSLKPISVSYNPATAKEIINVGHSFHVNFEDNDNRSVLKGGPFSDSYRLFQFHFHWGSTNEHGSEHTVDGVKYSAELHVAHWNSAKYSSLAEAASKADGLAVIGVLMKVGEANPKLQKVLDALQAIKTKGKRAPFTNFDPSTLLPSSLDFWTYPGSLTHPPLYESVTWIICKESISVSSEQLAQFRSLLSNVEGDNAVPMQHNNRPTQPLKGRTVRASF
# Protocol Details: stopped-flow CO2 hydrase assay, hCA I
# Format: biochemical
Attribute Measured: Ki (µM)

CC1OC(Nc2cc(C(=O)O)cc([N+](=O)[O-])c2)C(O)C(O)C1O (centres unmarked) [Compound 2] = 5.65
O=C(O)c1ccc(Sc2ccccc2C(=O)O)c([N+](=O)[O-])c1 [Compound 4] = 6.02
